# TESTED TARGET: human glucagon receptor (human) (UniProt P47871)
# Sequence (P47871 26-477): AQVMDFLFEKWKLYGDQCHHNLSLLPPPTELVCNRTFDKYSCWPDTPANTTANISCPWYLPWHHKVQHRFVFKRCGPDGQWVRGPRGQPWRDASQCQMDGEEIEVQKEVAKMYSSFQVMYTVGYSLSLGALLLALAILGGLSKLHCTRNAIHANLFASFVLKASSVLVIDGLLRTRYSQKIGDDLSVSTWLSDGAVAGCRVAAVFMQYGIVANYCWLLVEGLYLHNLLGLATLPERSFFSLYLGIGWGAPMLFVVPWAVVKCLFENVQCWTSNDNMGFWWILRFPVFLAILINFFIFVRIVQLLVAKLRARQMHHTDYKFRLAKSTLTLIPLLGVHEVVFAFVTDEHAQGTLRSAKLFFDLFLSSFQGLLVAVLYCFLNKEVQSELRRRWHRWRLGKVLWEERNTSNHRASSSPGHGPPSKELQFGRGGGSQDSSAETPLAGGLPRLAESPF
# EXPERIMENTAL DETAILS: cell-based or functional assay
Measured cAMP Rel EC50, nM (1% HSA) of individual entries

[
  {
    "BINDER": "YXQGTXTSDYSILLDXKAQXAFIEYLEEGGPSSGAPPPS (synthetic construct; SITE 2: note = 2-Aminoisobutyric Acid; SITE 6: note = alpha-methyl-2-fluoro-L-phenylalanine; SITE 16: note = L-ornithine; SITE 17: note = Lysine is chemically modified through conjugation of the epsilon-amino group of the Lysine side chain with (gamma-Glu)2-CO-(CH2)16-CO2H; SITE) [Example 414]",
    "cAMP Rel EC50, nM (1% HSA) [nM]": 487
  },
  {
    "BINDER": "YXQGTFTSDXSXXLDKKAQXAFIEYLIAGGPSSGEPPPSGE (non-natural residues (Aib, 4Pal, Orn, αMeL, Me4Pal); lipidated K; amide; synthetic construct; SITE 2: note = 2-Aminoisobutyric Acid; SITE 10: note = 3-(4-Pyridyl)-L-alanine; SITE 12: note = L-ornithine; SITE 13: note = alpha-methyl-leucine; SITE 17: note = Lysine is chemically modified through conjugation of the epsilon-amino group of the Lysine side chain with (gamma-Gl)) [Example 979]",
    "cAMP Rel EC50, nM (1% HSA) [nM]": 359
  },
  {
    "BINDER": "YXQGTFTSDXSQXLDXKAQXAFIEYLIEAGPSSGAPPPSGSE (not fully specified; acylated lysine (γGlu)2-C18 diacid; non-natural residues; C-terminal amide; synthetic construct; SITE 2: note = 2-Aminoisobutyric Acid; SITE 10: note = 3-(4-Pyridyl)-L-alanine; SITE 13: note = alpha-methyl-leucine; SITE 16: note = L-ornithine; SITE 17: note = Lysine is chemically modified through conjugation of the epsilon-amino group of the Lysine side chain with (gamma-Gl)) [Example 1023]",
    "cAMP Rel EC50, nM (1% HSA) [nM]": 856
  },
  {
    "BINDER": "YXQGTXTSDYSIXLDXKAQXAFIEYLLEGGPSSGAPPPSEG (synthetic construct; SITE 2: note = 2-Aminoisobutyric Acid; SITE 6: note = alpha-methyl-2-fluoro-L-phenylalanine; SITE 13: note = alpha-methyl-leucine; SITE 16: note = L-ornithine; SITE 17: note = Lysine is chemically modified through conjugation of the epsilon-amino group of the Lysine side chain w) [Example 404]",
    "cAMP Rel EC50, nM (1% HSA) [nM]": 735
  },
  {
    "BINDER": "YXQGTFTSDFSQXLDKKAQXAFIEYLLEXGESSGEPPPSGE (synthetic construct; SITE 2: note = 2-Aminoisobutyric Acid; SITE 13: note = alpha-methyl-leucine; SITE 17: note = Lysine is chemically modified through conjugation of the epsilon-amino group of the Lysine side chain with (2-[2-(2-Amino-ethoxy)-ethoxy]-acetyl)-(gamma-Glu)-CO-(CH2) 16-CO2H; SITE 20: n) [Example 790]",
    "cAMP Rel EC50, nM (1% HSA) [nM]": 1200
  },
  {
    "BINDER": "YXQGTFTSDXSRXLDKKAQXAFIEXLIEGGPSSGAPPPSGSEE (Aib, 4Pal, αMeL, Me4Pal; acylated Lys; C-terminal amide; synthetic construct; SITE 2: note = 2-Aminoisobutyric Acid; SITE 10: note = 3-(4-Pyridyl)-L-alanine; SITE 13: note = alpha-methyl-leucine; SITE 17: note = Lysine is chemically modified through conjugation of the epsilon-amino group of the Lysine side chain with (gamma-Glu)2-CO-(CH2)16-CO2H; SITE 20:) [Example 959]",
    "cAMP Rel EC50, nM (1% HSA) [nM]": 316
  },
  {
    "BINDER": "YXQGTFTSDXSQXLDKKAQXAFIEXLIEGGPSSGAPPPSGSEE (non-natural residues; Lys acylated C18 diacid; C-terminal amide; synthetic construct; SITE 2: note = 2-Aminoisobutyric Acid; SITE 10: note = 3-(4-Pyridyl)-L-alanine; SITE 13: note = alpha-methyl-leucine; SITE 17: note = Lysine is chemically modified through conjugation of the epsilon-amino group of the Lysine side chain with (2-[2-(2-Amino-ethoxy)-ethoxy]-acetyl)) [Example 954]",
    "cAMP Rel EC50, nM (1% HSA) [nM]": 450
  },
  {
    "BINDER": "YXQGTFTSDXSQXLDXKAQXAFIEYLIEAGPSSGAPPPSGSE (not fully specified; Aib, 4Pal, αMeL, Orn, Me4Pal, acylated K, C-terminal amide; synthetic construct; SITE 2: note = 2-Aminoisobutyric Acid; SITE 10: note = 3-(4-Pyridyl)-L-alanine; SITE 13: note = alpha-methyl-leucine; SITE 16: note = L-ornithine; SITE 17: note = Lysine is chemically modified through conjugation of the epsilon-amino group of the Lysine side chain with (2-[2-(2-) [Example 1022]",
    "cAMP Rel EC50, nM (1% HSA) [nM]": 586
  }
]
